System: OVCAR-4 ovarian
Test: NCI tumour cell line growth inhibition, 48 h
TGI overview

Recorded results for 5 compounds are shown here.
{"compound": "CC1(c2ccccc2)N=C(C(N)=O)c2[nH]cnc2N1 (configuration not stated)", "tested.target": "OVCAR-4 ovarian", "TGI": "> 100 µM"}
{"compound": "COc1ccc2nc3cc(Cl)ccc3c(Nc3ccc(O)c(CN4CCN(C)CC4)c3)c2c1", "tested.target": "OVCAR-4 ovarian", "TGI": "3.19 µM"}
{"compound": "N#CCC(=O)N/N=C(\\CCN1CCCC1)CC(c1ccccc1)c1c(O)c2ccccc2oc1=O (configuration not stated)", "tested.target": "OVCAR-4 ovarian", "TGI": "> 100 µM"}
{"compound": "Nc1cc(C(=O)NC2C3CC4CC(C3)CC2C4)[nH]c(=S)n1 (configuration not stated)", "tested.target": "OVCAR-4 ovarian", "TGI": "> 100 µM"}
{"compound": "O=C(c1cc(Cl)ccc1Cl)N1CCN(c2ccc(Cl)c(Cl)c2)CC1", "tested.target": "OVCAR-4 ovarian", "TGI": "> 100 µM"}

Query :: Name the recorded TGI for Cc1ccc(/C=C2\COc3ccc(O)c(O)c3C2=O)cc1 .
Result :: 4.96 µM

Query :: Record request: TGI value, item CN(C)C(=S)OC(Cn1cncn1)c1ccc(Cl)cc1Cl (configuration not stated)
Result :: > 100 µM

Query :: Reported TGI, compound COc1cc(C(=O)N2CCN(c3ccccn3)CC2)c(N)cc1OCc1ccccc1 : ____
Result :: > 100 µM

Query :: Any idea what its TGI is? The compound is O=C(Nc1ccc(F)cc1)C(=O)C(C(=O)c1ccccc1F)C1OC(=O)c2ccccc21 (configuration not stated)
Result :: > 100 µM

Query :: Reported TGI for CCSC(=O)N1c2ccc(OC)cc2C=CC1C#N (configuration not stated) : what is it?
Result :: > 1000 µM

Query :: Quick one: TGI for O=C1c2ccccc2-c2c1c1ccc([N+](=O)[O-])cc1c(=O)n2CCCN1CCOCC1 ?
Result :: > 48.3 µM

Query :: Look up TGI for this compound: O=[N+]([O-])c1ccc(N/N=C2\C=CCCC2)c([N+](=O)[O-])c1
Result :: > 100 µM

Query :: Record request: TGI value, item O=C(CC(C(=O)c1ccc(F)cc1)c1ccsc1)c1cccs1 (configuration not stated)
Result :: > 100 µM

Query :: Param item = CN(C)c1ccc(/C=C(\C#N)c2nc(-c3cc4ccccc4oc3=O)cs2)cc1 ; retrieve measured TGI.
Result :: > 50 µM

Query :: Given the compound N#CC12CC3=C(N=C1NC1=C(CCc4ccccc41)C2)c1ccccc1CC3 (configuration not stated) , what is its reported TGI?
Result :: > 78.6 µM

Query :: Name the reported TGI value associated with the compound O=C(NCc1ccccc1)c1cc2ccccc2oc1=Nc1ccccc1F
Result :: 76.7 µM

====

Test system: EKVX NSCLC
Assay: NCI tumour cell line growth inhibition, 48 h
endpoint.name: TGI

Some compounds with recorded TGI:
{"compound": "COc1ccc([As]=[As]c2ccc(OC)c(NCS(=O)(=O)O)c2)cc1NCS(=O)(=O)O (stereo unspecified)", "tested.target": "EKVX NSCLC", "TGI": "7.26 µM"}
{"compound": "CN(C)c1ccc(/C=C(\\C#N)c2nc(-c3cc4ccccc4oc3=O)cs2)cc1", "tested.target": "EKVX NSCLC", "TGI": "> 50 µM"}
{"compound": "O=C(c1cc(Cl)ccc1Cl)N1CCN(c2ccc(Cl)c(Cl)c2)CC1", "tested.target": "EKVX NSCLC", "TGI": "> 100 µM"}
{"compound": "[N-]=[N+]=NC1=C(C(=O)c2ccccc2)C(=O)c2cccc3cccc1c23", "tested.target": "EKVX NSCLC", "TGI": "89.2 µM"}
{"compound": "O=C1CSC(c2cccc([N+](=O)[O-])c2)N1c1ccc(-c2ccc(-n3c(-c4ccccc4)nc4ccccc4c3=O)cc2)cc1 (stereo unspecified)", "tested.target": "EKVX NSCLC", "TGI": "> 100 µM"}

Query :: Which TGI value belongs to Cc1ccc(/C=C2\COc3ccc(O)c(O)c3C2=O)cc1 ?
Result :: 4.14 µM

Query :: State the recorded TGI for this entry: CCC1(CC)C(=O)N(C(=O)c2ccc(C)cc2)N(C(=O)c2ccc(C)cc2)C1=O
Result :: > 75 µM

Query :: Need TGI, item CN(C)CCCNC(=O)c1c(-c2cccnc2)cnc2ccccc12
Result :: > 100 µM

Query :: Data request, read-out TGI, for COc1ccc(N=NC(=O)NC(CC(C)C)C(=O)NC(Cc2ccccc2)C(=O)O)cc1 (stereo unspecified)
Result :: > 100 µM

Query :: Fill in: TGI of CCCCCNC(=O)c1cc2cc(CCl)ccc2oc1=O is ___
Result :: 9.94 µM

Query :: Look up TGI: COc1cc(/C=C2\CN(S(=O)(=O)c3ccc(C)cc3)C/C(=C\c3cc(CN4CCOCC4)c(O)c(OC)c3)C2=O)cc(CN2CCOCC2)c1O
Result :: 92.5 µM

Query :: # get_value(readout='TGI', item= O=[N+]([O-])C(=C1NCCN1)C(Cl)=C(Cl)Cl )
Result :: > 100 µM

Query :: What value of measured TGI is listed for O=c1[nH]c2nc3ccccc3n2c(O)c1-c1ccccc1 ?
Result :: > 100 µM

====

Tested on: NCI-H460 lung
Log the outcome using a class from 1 (active), 0 (inactive)

{"smiles.text": "COc1cc2c3c(n(CCCn4ccnc4)c(=O)c2cc1OC)-c1cc2c(cc1C3=O)OCO2", "tested.target": "NCI-H460 lung", "cat": 1}
{"smiles.text": "O=C(CI)OCC(COC(=O)CI)OC(=O)CI", "tested.target": "NCI-H460 lung", "cat": 0}
{"smiles.text": "Cc1cc2c(cc1C)[n+](=O)c(C(=O)C(C)(C)C)c(C(F)(F)F)n2[O-]", "tested.target": "NCI-H460 lung", "cat": 0}
{"smiles.text": "COc1ccc(-c2nn(C(=O)NCCN(C)C)cc2-c2ccncc2)cc1Cl", "tested.target": "NCI-H460 lung", "cat": 0}
{"smiles.text": "CCN(Cc1cccnc1)c1ccc(CO)c(Cl)c1", "tested.target": "NCI-H460 lung", "cat": 0}

Query :: For this compound, state the assay outcome: CS(=O)(=O)c1ccc(Oc2cc(F)cc(C#N)c2)c2c1[C@H](O)[C@H](F)[C@H]2F
Result :: 0

Query :: Could you check what this test reported for OCCCc1n(Cc2ccc3ccccc3c2)c2ccccc2[n+]1Cc1ccc2ccccc2c1 ?
Result :: 0

Query :: Assay result, entry COc1cc(/C=C2\CN(S(=O)(=O)c3ccc(C)cc3)C/C(=C\c3cc(CN4CCOCC4)c(O)c(OC)c3)C2=O)cc(CN2CCOCC2)c1O — outcome?
Result :: 1

Query :: Entry COc1cc2cc(c1Cl)N(C)C(=O)C[C@H](OC(=O)[C@H](C)N(C)C(=O)CCS)C[C@]1(C)O[C@H]1[C@H](C)[C@@H]1C[C@@](O)(NC(=O)O1)[C@H](OC)/C=C/C=C(\C)C2 : call = ?
Result :: 1

Query :: Short answer needed: outcome of this test for COc1cc(C(=O)N2CCN(c3ccccn3)CC2)c(N)cc1OCc1ccccc1 ?
Result :: 0

Query :: Could you kindly confirm the outcome this assay logged for Cc1nc2ccc(Nc3nc(Cl)nc(Nc4ccc(F)cc4)n3)cc2n1Cc1ccccc1 ?
Result :: 0

Query :: Called result for O=C1c2ccccc2-c2c1c1ccc([N+](=O)[O-])cc1c(=O)n2CCCN1CCOCC1
Result :: 1

Query :: Assay result, entry O=C(Cc1csc2nc(-c3ccc(Br)cc3)cn12)N/N=C/c1ccccc1 — outcome?
Result :: 0

Query :: Identify the outcome logged in this assay for the compound shown: CCO.CCO.Oc1ccc(Nc2ncns2)cc1.Oc1ccc(Nc2ncns2)cc1.[Ti]
Result :: 0

====

Tested on: UACC-62 melanoma
Assay: NCI tumour cell line growth inhibition, 48 h
endpoint.name: TGI (µM)
Kindly provide the numeric value in µM only, without the unit symbol.

{"smiles.text": "O=C(Nn1cc(F)c(=O)[nH]c1=O)C12CC3CC(CC(C3)C1)C2", "TGI, µM": 24.4}
{"smiles.text": "CC(=O)O[C@H]1CC[C@]2(C)[C@H]3CC=C4[C@@H]5CC(C)(C)CC[C@]5(C(=O)NCCNCCNCCN)CC[C@@]4(C)[C@]3(C)CC[C@H]2C1(C)C", "TGI, µM": 3.18}
{"smiles.text": "O=C1C(c2ccc([N+](=O)[O-])cc2)=[N+]([O-])c2ccc([N+](=O)[O-])cc21", "TGI, µM": 47.5}
{"smiles.text": "O=C1/C(=C/c2ccc(O)c(CN3CCCCC3)c2)CCC/C1=C\\c1ccc(O)c(CN2CCCCC2)c1", "TGI, µM": 38.2}

Continue with the next compound.
Query :: What value of measured TGI is listed for CN(C)c1ccc(/C=C(\C#N)c2nc(-c3cc4ccccc4oc3=O)cs2)cc1 ?
Result :: 24.3
